Reported AC50 is given for each of the following molecules.
testSystem: Gamma-aminobutyric acid receptor subunit alpha-1 (Rattus norvegicus, UniProt P62813); note: assay procedure not described here
Sequence (P62813 whole entry): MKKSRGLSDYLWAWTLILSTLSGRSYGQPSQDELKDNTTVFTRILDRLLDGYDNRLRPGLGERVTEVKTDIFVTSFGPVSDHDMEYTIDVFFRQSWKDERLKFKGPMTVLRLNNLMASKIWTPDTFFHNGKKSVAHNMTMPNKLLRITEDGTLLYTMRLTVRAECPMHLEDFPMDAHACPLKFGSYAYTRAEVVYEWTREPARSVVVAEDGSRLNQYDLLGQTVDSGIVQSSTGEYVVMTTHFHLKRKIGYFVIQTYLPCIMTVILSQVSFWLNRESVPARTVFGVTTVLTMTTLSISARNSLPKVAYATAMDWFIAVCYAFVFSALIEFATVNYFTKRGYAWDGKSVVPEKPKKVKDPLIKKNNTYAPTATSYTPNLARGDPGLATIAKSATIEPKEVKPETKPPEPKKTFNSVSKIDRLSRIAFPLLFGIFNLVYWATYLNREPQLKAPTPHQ
Type: functional
measurementName: AC50

[
  {
    "molecule": "CCOc1nc2cccc(C(=O)O)c2n1Cc1ccc(-c2ccccc2-c2nnn[nH]2)cc1",
    "endpointResult": "> 30 µM"
  },
  {
    "molecule": "CC(=O)c1ccc(S(=O)(=O)NC(=O)NC2CCCCC2)cc1 [ACETOHEXAMIDE]",
    "endpointResult": "> 10 µM"
  },
  {
    "molecule": "CCCN1CCCC[C@H]1C(=O)Nc1c(C)cccc1C",
    "endpointResult": "> 30 µM"
  },
  {
    "molecule": "CC=CC1=C(C(=O)O)N2C(=O)[C@@H](NC(=O)[C@H](N)c3ccc(O)cc3)[C@H]2SC1",
    "endpointResult": "> 30 µM"
  },
  {
    "molecule": "COC(=O)C1=C(C)NC(C)=C(C(=O)OCCN2CCN(C(c3ccccc3)c3ccccc3)CC2)C1c1cccc([N+](=O)[O-])c1 (stereo not drawn)",
    "endpointResult": "> 30 µM"
  },
  {
    "molecule": "CC1=C(/C=C/C(C)=C/C=C/C(C)=C/CO)C(C)(C)CCC1",
    "endpointResult": "> 10 µM"
  },
  {
    "molecule": "CC(O)(CS(=O)(=O)c1ccc(F)cc1)C(=O)Nc1ccc(C#N)c(C(F)(F)F)c1 (stereo not drawn) [BICALUTAMIDE]",
    "endpointResult": "> 10 µM"
  },
  {
    "molecule": "S=P(N1CC1)(N1CC1)N1CC1",
    "endpointResult": "> 30 µM"
  },
  {
    "molecule": "Cn1c(=O)c2c(ncn2CCOC(=O)C(C)(C)Oc2ccc(Cl)cc2)n(C)c1=O [THEOFIBRATE]",
    "endpointResult": "> 30 µM"
  },
  {
    "molecule": "CCCc1cc(=O)[nH]c(=S)[nH]1",
    "endpointResult": "> 10 µM"
  },
  {
    "molecule": "O=C(O)Cc1ccccc1Oc1ccc(Cl)cc1Cl",
    "endpointResult": "> 10 µM"
  },
  {
    "molecule": "CC(CN1c2ccccc2Sc2ccccc21)N(C)C (stereo not drawn)",
    "endpointResult": "> 10 µM"
  },
  {
    "molecule": "COC(=O)[C@H]1[C@H]2C[C@@H]3c4[nH]c5cc(OC)ccc5c4CCN3C[C@H]2C[C@@H](OC(=O)c2cc(OC)c(OC)c(OC)c2)[C@@H]1OC",
    "endpointResult": "> 10 µM"
  },
  {
    "molecule": "CN(C)C/C=C/C(=O)Nc1cc2c(Nc3ccc(F)c(Cl)c3)ncnc2cc1O[C@H]1CCOC1",
    "endpointResult": "> 30 µM"
  },
  {
    "molecule": "NS(=O)(=O)c1cc2c(cc1Cl)N=C(CSCc1ccccc1)NS2(=O)=O [BENZTHIAZIDE]",
    "endpointResult": "> 10 µM"
  },
  {
    "molecule": "CC/C=C\\C/C=C\\C/C=C\\C/C=C\\C/C=C\\CCCC(=O)OCC",
    "endpointResult": "> 30 µM"
  },
  {
    "molecule": "CC(C)(Oc1ccc(CCNC(=O)c2ccc(Cl)cc2)cc1)C(=O)O [BEZAFIBRATE]",
    "endpointResult": "> 10 µM"
  },
  {
    "molecule": "Cn1cc(C(=O)[C@@H]2CCc3nc[nH]c3C2)c2ccccc21",
    "endpointResult": "17 µM"
  }
]

====

testSystem: Mu-type opioid receptor (Homo sapiens, UniProt P35372); note: assay procedure not described here
Sequence (P35372 whole entry): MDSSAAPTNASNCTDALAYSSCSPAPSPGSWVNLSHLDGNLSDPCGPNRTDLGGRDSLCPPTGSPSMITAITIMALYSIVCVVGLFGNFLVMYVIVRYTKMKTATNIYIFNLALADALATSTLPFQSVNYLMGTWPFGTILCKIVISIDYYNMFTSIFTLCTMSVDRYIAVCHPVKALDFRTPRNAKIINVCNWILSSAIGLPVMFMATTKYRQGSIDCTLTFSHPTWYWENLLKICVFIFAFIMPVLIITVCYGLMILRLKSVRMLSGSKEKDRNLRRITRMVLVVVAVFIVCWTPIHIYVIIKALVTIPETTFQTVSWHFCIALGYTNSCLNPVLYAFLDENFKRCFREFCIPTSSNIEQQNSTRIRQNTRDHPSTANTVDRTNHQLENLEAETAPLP
measurementNotes: biochemical
Type: functional
measurementName: AC50

[
  {
    "compound": "CO/N=C(\\C(=O)N[C@@H]1C(=O)N2C(C(=O)O)=C(CSc3nc(=O)c(=O)[nH]n3C)CS[C@H]12)c1csc(N)n1",
    "measurementName": "AC50",
    "endpointResult": "> 30 µM"
  },
  {
    "compound": "C[C@]12C/C(=C/O)C(=O)C[C@@H]1CC[C@@H]1[C@@H]2CC[C@@]2(C)[C@H]1CC[C@]2(C)O",
    "measurementName": "AC50",
    "endpointResult": "> 30 µM"
  },
  {
    "compound": "CNC(=C[N+](=O)[O-])NCCSCc1csc(CN(C)C)n1",
    "measurementName": "AC50",
    "endpointResult": "> 30 µM"
  },
  {
    "compound": "CCN1CCCC1CNC(=O)c1cc(S(=O)(=O)CC)ccc1OC (stereo not drawn) [SULTOPRIDE]",
    "measurementName": "AC50",
    "endpointResult": "> 30 µM"
  },
  {
    "compound": "CCC(=O)O[C@](Cc1ccccc1)(c1ccccc1)[C@H](C)CN(C)C",
    "measurementName": "AC50",
    "endpointResult": "0.17 µM"
  },
  {
    "compound": "CCOC(=O)c1ncn2c1CN(C)C(=O)c1cc(F)ccc1-2",
    "measurementName": "AC50",
    "endpointResult": "> 30 µM"
  },
  {
    "compound": "O=C(O)c1cccnc1Nc1cccc(C(F)(F)F)c1",
    "measurementName": "AC50",
    "endpointResult": "> 30 µM"
  },
  {
    "compound": "O=C(NCCO[N+](=O)[O-])c1cccnc1",
    "measurementName": "AC50",
    "endpointResult": "> 30 µM"
  },
  {
    "compound": "CCCN1CCCC[C@H]1C(=O)Nc1c(C)cccc1C",
    "measurementName": "AC50",
    "endpointResult": "> 30 µM"
  },
  {
    "compound": "CC/C=C\\C/C=C\\C/C=C\\C/C=C\\C/C=C\\CCCC(=O)OCC",
    "measurementName": "AC50",
    "endpointResult": "> 30 µM"
  },
  {
    "compound": "COc1ccc(CN2CCN(C(c3ccc(F)cc3)c3ccc(F)cc3)CC2)c(OC)c1OC",
    "measurementName": "AC50",
    "endpointResult": "3.3 µM"
  },
  {
    "compound": "Cc1cc(C)nc(NS(=O)(=O)c2ccc(N)cc2)n1",
    "measurementName": "AC50",
    "endpointResult": "> 30 µM"
  },
  {
    "compound": "CO/N=C(\\C(=O)N[C@@H]1C(=O)N2C(C(=O)O)=CCS[C@H]12)c1csc(N)n1",
    "measurementName": "AC50",
    "endpointResult": "> 30 µM"
  },
  {
    "compound": "C=CC[N+]1([C@H]2C[C@H]3[C@@H]4CC[C@H]5C[C@H](O)[C@@H](N6CCOCC6)C[C@]5(C)[C@H]4CC[C@]3(C)[C@H]2OC(C)=O)CCCC1",
    "measurementName": "AC50",
    "endpointResult": "> 30 µM"
  },
  {
    "compound": "C=CCN1CCc2nc(N)sc2CC1 [TALIPEXOLE]",
    "measurementName": "AC50",
    "endpointResult": "> 30 µM"
  },
  {
    "compound": "CN1CCN=C(c2ccccc2)c2cc(Cl)ccc21",
    "measurementName": "AC50",
    "endpointResult": "> 30 µM"
  },
  {
    "compound": "C[C@]12C=CC(=O)C=C1CC[C@@H]1[C@@H]2CC[C@]2(C)OC(=O)CC[C@@H]12",
    "measurementName": "AC50",
    "endpointResult": "> 30 µM"
  },
  {
    "compound": "O=C(CCCN1CCC(O)(c2ccc(Br)cc2)CC1)c1ccc(F)cc1",
    "measurementName": "AC50",
    "endpointResult": "2 µM"
  }
]

====

testSystem: Voltage-dependent L-type calcium channel subunit alpha-1C (Rattus norvegicus, UniProt P22002); note: assay procedure not described here
Sequence (P22002 whole entry): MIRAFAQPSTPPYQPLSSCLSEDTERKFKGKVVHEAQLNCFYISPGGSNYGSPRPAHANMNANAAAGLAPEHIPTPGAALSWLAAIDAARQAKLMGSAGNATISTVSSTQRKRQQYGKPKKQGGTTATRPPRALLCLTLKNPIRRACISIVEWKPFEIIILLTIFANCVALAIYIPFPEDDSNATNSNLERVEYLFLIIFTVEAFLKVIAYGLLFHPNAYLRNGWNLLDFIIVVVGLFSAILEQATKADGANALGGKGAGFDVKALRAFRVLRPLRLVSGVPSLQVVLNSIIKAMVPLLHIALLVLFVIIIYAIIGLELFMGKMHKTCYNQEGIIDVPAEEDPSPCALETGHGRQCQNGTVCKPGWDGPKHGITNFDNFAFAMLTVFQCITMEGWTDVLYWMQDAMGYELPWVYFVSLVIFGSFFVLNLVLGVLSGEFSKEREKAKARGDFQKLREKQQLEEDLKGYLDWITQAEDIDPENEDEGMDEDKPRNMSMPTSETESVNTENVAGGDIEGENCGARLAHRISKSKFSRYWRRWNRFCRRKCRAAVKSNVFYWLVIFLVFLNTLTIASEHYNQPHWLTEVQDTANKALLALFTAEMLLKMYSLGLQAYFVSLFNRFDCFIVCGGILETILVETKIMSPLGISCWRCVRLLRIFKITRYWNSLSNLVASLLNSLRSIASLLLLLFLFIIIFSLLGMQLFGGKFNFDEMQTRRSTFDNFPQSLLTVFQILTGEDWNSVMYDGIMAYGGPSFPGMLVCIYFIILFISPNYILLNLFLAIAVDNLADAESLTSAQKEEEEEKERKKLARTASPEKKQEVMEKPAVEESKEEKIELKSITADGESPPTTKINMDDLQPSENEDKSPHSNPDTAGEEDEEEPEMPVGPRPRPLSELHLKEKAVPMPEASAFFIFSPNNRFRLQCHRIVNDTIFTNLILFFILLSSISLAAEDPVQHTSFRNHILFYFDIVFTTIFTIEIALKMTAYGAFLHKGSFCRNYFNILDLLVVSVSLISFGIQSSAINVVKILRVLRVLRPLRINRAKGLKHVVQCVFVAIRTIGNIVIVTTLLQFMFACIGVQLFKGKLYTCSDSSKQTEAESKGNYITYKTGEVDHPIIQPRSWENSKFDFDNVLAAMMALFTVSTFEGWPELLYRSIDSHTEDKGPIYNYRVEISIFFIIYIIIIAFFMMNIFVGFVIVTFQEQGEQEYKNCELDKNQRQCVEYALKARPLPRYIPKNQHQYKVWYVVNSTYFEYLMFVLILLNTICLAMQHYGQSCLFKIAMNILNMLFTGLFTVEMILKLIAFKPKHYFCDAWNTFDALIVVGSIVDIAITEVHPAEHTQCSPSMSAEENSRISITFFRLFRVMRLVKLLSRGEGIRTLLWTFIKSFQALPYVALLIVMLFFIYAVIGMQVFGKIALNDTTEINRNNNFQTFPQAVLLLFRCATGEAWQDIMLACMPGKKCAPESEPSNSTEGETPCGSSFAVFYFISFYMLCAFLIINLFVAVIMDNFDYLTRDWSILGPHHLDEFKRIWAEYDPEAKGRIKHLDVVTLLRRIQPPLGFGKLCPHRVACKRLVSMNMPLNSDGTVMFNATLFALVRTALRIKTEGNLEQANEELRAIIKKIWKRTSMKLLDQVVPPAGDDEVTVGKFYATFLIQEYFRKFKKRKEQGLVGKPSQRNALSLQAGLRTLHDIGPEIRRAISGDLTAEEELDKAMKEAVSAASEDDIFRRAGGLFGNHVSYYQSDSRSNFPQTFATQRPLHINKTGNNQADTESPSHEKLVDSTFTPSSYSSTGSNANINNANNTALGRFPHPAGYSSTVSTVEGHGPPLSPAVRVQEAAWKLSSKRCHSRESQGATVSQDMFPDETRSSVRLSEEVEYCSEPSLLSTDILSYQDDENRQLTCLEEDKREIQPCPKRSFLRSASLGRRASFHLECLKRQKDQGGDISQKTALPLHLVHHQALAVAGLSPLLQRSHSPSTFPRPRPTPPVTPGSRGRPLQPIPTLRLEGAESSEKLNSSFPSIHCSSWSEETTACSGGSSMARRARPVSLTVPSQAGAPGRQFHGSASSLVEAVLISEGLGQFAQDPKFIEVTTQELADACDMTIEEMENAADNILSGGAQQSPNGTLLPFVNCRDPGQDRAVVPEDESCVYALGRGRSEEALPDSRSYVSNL
Type: functional

[
  {
    "molecule": "O=C(c1cc(Cc2n[nH]c(=O)c3ccccc23)ccc1F)N1CCN(C(=O)C2CC2)CC1",
    "AC50": "> 10 µM"
  },
  {
    "molecule": "CC(=O)O[C@]1(C(C)=O)CC[C@H]2[C@@H]3C=C(Cl)C4=CC(=O)[C@@H]5C[C@@H]5[C@]4(C)[C@H]3CC[C@@]21C [CYPROTERONE ACETATE]",
    "AC50": "> 10 µM"
  },
  {
    "molecule": "CC/C=C\\C/C=C\\C/C=C\\C/C=C\\C/C=C\\CCCC(=O)OCC",
    "AC50": "> 30 µM"
  },
  {
    "molecule": "CN(CCOc1ccc(CC2SC(=O)NC2=O)cc1)c1ccccn1 (stereo not drawn)",
    "AC50": "> 30 µM"
  },
  {
    "molecule": "COc1ccc(CN2CCN(C(c3ccc(F)cc3)c3ccc(F)cc3)CC2)c(OC)c1OC",
    "AC50": "2.4 µM"
  },
  {
    "molecule": "CC(=O)[C@H]1CC[C@H]2[C@@H]3C[C@H](C)C4=CC(=O)CC[C@]4(C)[C@H]3[C@@H](O)C[C@]12C",
    "AC50": "> 10 µM"
  },
  {
    "molecule": "O=C(O)Cc1ccccc1Nc1c(Cl)cccc1Cl",
    "AC50": "> 10 µM"
  },
  {
    "molecule": "O=C(O)c1cccnc1Nc1cccc(C(F)(F)F)c1",
    "AC50": "> 10 µM"
  }
]
